Each recorded value in this set is attributed to paper PMC12504763.

target: COX-2 (Homo sapiens); construct: purchased BioVision incorporated USA K548–100; assay: biochemical; settings: 3 replicates, read-out: % Inhibition of COX-2 ± SEM
Sequence (P35354 18-604): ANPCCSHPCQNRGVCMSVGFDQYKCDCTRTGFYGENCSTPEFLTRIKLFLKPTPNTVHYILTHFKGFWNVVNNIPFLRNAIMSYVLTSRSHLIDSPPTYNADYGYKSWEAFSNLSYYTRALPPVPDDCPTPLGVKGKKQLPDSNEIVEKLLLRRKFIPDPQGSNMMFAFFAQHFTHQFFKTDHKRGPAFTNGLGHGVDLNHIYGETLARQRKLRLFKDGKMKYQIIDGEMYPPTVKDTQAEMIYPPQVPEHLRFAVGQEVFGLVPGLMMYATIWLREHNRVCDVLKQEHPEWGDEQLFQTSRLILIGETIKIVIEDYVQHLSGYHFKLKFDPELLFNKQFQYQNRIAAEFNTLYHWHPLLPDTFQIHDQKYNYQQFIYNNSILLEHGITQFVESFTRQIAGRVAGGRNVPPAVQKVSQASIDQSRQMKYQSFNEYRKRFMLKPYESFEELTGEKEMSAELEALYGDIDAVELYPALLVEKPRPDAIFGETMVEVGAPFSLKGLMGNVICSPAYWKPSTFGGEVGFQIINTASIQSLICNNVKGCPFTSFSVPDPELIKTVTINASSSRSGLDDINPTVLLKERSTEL
Quick rule: inhibition at 10 µM of at least 60% means rule met, below that means rule not met.

>  <Compound>
CCOP(=O)(OCC)N1C/C(=C\c2ccc(C)cc2)C(=O)C2(C1)C(c1ccc(C)cc1)CN(C)C21C(=O)Nc2ccc(F)cc21 (stereo not shown) [Compound 17n]

>  <Label Value>
rule not met

$$$$
>  <Compound>
CCOP(=O)(OCC)N1C/C(=C\c2cccs2)C(=O)C2(C1)C(c1cccs1)CN(C)C21C(=O)Nc2ccc(F)cc21 (stereo not shown) [Compound 17r]

>  <Label Value>
rule not met

$$$$
>  <Compound>
CCOP(=O)(OCC)N1C/C(=C\c2cccs2)C(=O)C2(C1)C(c1cccs1)CN(C)C21C(=O)Nc2ccccc21 (stereo not shown) [Compound 17q]

>  <Label Value>
rule met

$$$$

Now look at this one.
Request: Would you say CCOP(=O)(OCC)N1C/C(=C\c2ccccc2)C(=O)C2(C1)C(c1ccccc1)CN(C)C21C(=O)Nc2ccccc21 (stereo not shown) [Compound 17a] shows inhibition at 10 µM at minimum 60%?
Result: rule met
